Measured T/C values are reported for all entries that follow.
- System: P388 leukemia ip, CD2F1 mice, survival T/C
- EXPERIMENT: NCI In Vivo Anticancer Drug Screen. Data for tumor model P388 Leukemia (intraperitoneal) in CD2F1 (CDF1) mice
- STUDY CONDITIONS: endpoint: median survival time; dose: 200.0 mg/kg/injection; schedule: Q04DX002 (ip); vehicle: saline; higher = longer survival
- Protocol: The antitumor activity of compounds was measured in mice bearing transplantable tumors. Survival or tumor size were measured and the results are expressed as the measurement made in the treated group (T) divided by the measurement made in the vehicle treated control group (C). The tumor model used in this assay is P388 Leukemia (intraperitoneal) in CD2F1 (CDF1) mice
Toxic doses and inconclusive results are not listed.

| CHEMICAL STRUCTURE | T/C |
| --- | --- |
| CCCCNc1ncc(S(=O)(=O)Cc2ccc3c(c2)OCO3)c(N)n1 | 100 % of control |
| Cc1cc(/C=C2/OC(=O)c3ccccc32)cc(C)c1O | 97 % of control |
| CCn1cc(C(=O)O)c(=O)c2ccc(C)[n+](C)c21 | 100 % of control |
| C1CN2CCCN3CCCN(C1)P23 | 98 % of control |
